# experimental-system: T1, human iRhom2, endogenously expressed (human, UniProt Q6PJF5 1-856); note: test concentration or dose not given here
# T1 sequence: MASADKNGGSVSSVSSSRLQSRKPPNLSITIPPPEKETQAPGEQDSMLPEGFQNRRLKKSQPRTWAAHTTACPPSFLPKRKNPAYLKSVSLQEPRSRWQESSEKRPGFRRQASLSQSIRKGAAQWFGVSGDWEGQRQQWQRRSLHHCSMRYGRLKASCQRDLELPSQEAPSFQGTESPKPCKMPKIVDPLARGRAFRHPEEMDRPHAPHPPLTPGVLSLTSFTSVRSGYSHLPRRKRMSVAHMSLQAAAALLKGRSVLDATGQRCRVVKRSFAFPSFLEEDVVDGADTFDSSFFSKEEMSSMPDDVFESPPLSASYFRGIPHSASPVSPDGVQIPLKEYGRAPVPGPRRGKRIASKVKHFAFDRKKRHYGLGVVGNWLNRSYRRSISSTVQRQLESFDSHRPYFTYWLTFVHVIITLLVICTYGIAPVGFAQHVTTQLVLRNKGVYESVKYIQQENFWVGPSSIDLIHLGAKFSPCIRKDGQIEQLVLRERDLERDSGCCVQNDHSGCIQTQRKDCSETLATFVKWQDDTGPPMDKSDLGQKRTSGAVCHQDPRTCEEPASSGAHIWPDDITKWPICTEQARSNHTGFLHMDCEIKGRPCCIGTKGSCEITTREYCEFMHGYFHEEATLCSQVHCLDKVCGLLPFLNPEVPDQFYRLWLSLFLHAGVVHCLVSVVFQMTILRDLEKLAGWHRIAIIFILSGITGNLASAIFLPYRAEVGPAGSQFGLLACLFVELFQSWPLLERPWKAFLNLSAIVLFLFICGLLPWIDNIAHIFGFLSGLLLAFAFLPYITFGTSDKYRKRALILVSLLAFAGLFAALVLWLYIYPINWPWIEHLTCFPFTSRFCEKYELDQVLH
# assay-method-text: cell-based or functional assay
Recorded PMA-induced HB-EGF release from U-937 cells, percent inhibition values for a group of binders are listed next.
value-type: PMA-induced HB-EGF release from U-937 cells, percent inhibition (%)

[
  {
    "binder": "chimeric antibody 22 (antibody, V domains shown) VH: QVTLKESGPGILQPSQTLSLTCSFSGFSLSTFGMGVGWIRQPSGKGLEWLAHIWWDDEKYYNSALKSRLTISKATSKNQVFLKIANVDTADTATYYCARISNYGSNYWYFNVWGTGTTVTVSS VL: QVVLTQSPALMSASPGEKVTMTCSAGSSVSYMYWYQQKPGSSPRVLIYDTSNLASGVPARFTGSGSGTSYSLTISRMEAEDAATYYCQQWNSYPLTFGAGTKLELK",
    "units-text": "%",
    "experimental-result": 103
  },
  {
    "binder": "antibody 16 (antibody, V domains shown, mouse IgG, kappa light chain; also called clone #16; purified antibody 16) VH: QVTLKESGPGILQPSQTLSLTCSFSGFSLSTFALGVGWIRQPSGRGLEWLAHIWWDDDKYYNPALKSRLTISKDTSKNHVFLKIANVDTADTATYYCARITTYYYGMDYWGQGTSVTVSS VL: DIVLSQSPATLSVTPGDSVSLFCRASQSIGNHLHWYQQESHASPRLLIKYASQSISGIPSRFSGSGSGTDFTLSINSVETEDFGMYFCQQSYNWPLTFGAGTKLELK",
    "units-text": "%",
    "experimental-result": 99.6
  },
  {
    "binder": "chimeric antibody 42 (antibody, V domains shown) VH: QVTLKESGPGILQPSQTLSLTCSLSGFSLSTFGRGVGWIRQPSGKGLEWLAHIWWDDEKYYNPALKSRLTISKDTSKNQVFLRIANVDTADTATYYCARIQNYGSNYWYFDVWGTGTTVTVSS VL: LIVLTQSPAIMSASPGEKVTMTCGATSRISYMFWYQQKPGSSPRVLIYDTSNLASGVPVRFSGSGSGTSYSLTISRVEAEDVATYYCQQWNSYPLTFGAGTKLELK",
    "units-text": "%",
    "experimental-result": 103
  },
  {
    "binder": "antibody 42 (antibody, V domains shown, mouse IgG, kappa light chain; also called clone #42; purified antibody 42) VH: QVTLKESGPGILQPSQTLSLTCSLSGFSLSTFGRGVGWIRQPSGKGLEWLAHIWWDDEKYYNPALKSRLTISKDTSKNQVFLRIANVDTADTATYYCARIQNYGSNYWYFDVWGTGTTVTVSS VL: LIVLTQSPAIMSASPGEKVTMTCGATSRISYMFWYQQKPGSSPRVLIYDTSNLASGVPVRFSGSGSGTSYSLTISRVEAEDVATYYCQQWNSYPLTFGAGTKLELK",
    "units-text": "%",
    "experimental-result": 104
  },
  {
    "binder": "chimeric antibody 44 (antibody, V domains shown) VH: QVTLKESGPGILQPSQTLSLTCSFSGFSLSTFGMGVGWIRQPSEKGLEWLAHIWWDDDKYYNPALKSRLTISKDTSKNQIFLKITNVDTAETATYYCSRIGNYGSNYWYFDVWGTGTTVTVSS VL: QIVLTQSPAVMSASPGEKVTMTCTASSSVYYMYWYQQTPGSSPRLLIYDTSNLASGVPVRFSGSGSGTSYSLTISRMEAEDAATYYCQQWNTYPLTFGAGTKLELK",
    "units-text": "%",
    "experimental-result": 99.2
  },
  {
    "binder": "antibody 44 (antibody, V domains shown, mouse IgG, kappa light chain; also called clone #44; purified antibody 44) VH: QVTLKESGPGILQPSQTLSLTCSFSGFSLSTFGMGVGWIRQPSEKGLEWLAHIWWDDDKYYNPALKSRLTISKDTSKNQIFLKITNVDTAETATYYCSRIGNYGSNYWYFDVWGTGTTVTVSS VL: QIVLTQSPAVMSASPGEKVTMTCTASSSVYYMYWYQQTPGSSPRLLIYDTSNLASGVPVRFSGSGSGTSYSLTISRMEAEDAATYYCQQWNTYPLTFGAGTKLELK",
    "units-text": "%",
    "experimental-result": 100
  },
  {
    "binder": "chimeric antibody 16 (antibody, V domains shown, chimeric version of clone #16, made in CHO cells, detected with anti-human IgG; also called ch16; chl6 (so in the source)) VH: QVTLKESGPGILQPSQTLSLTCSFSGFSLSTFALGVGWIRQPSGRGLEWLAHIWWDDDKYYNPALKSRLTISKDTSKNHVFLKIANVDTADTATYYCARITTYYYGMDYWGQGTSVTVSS VL: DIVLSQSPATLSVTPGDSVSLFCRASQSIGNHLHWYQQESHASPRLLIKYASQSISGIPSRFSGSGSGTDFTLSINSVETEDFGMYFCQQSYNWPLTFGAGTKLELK",
    "units-text": "%",
    "experimental-result": 101
  },
  {
    "binder": "antibody 22 (antibody, V domains shown, mouse IgG, kappa light chain; also called clone #22; purified antibody 22) VH: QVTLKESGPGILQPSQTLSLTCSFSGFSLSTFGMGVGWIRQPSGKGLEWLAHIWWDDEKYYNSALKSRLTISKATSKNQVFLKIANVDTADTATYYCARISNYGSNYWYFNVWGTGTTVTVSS VL: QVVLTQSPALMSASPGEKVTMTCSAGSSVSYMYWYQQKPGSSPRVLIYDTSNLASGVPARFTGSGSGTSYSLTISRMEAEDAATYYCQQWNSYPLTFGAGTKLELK",
    "units-text": "%",
    "experimental-result": 101
  },
  {
    "binder": "chimeric antibody 34 (antibody, V domains shown) VH: QVTLKESGPGILQPSQTLSLTCSFSGFSLSTFSLGVGWIRQSSGKGLEWLAHIWWDDEKYYNPALKSRLTISKDTSKNQVFLKIANVDAADTATYYCARAYYSKSYYALDYWGQGTSVTVSS VL: DIQMTQSPSSLSASLGERVSLTCRASQEISGYLSWLQQKPDGTIKRLIYAASTLDSGVPKRFSGSRSGSDYSLAISSLESEDFADYYCLQYANFPFTFGSGTKLEIK",
    "units-text": "%",
    "experimental-result": 98.1
  },
  {
    "binder": "antibody 34 (antibody, V domains shown, mouse IgG, kappa light chain; also called clone #34; purified antibody 34) VH: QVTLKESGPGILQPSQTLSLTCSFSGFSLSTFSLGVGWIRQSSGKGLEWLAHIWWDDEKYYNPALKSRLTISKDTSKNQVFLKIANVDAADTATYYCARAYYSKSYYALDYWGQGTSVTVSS VL: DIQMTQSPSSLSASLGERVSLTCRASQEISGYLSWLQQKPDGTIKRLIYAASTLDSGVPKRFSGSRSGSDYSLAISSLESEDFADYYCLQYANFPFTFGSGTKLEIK",
    "units-text": "%",
    "experimental-result": 98.2
  }
]
